Test system: EKVX NSCLC
Experiment: NCI tumour cell line growth inhibition, 48 h
Where a SMILES comes first, the peptide text is derived from it. [ ]: non-standard residue; d: D form. The star is where a group is joined. Dolaproine = CO[C@@H]([C@@H]1CCCN1)[C@@H](C)C(=O)O; Dil = CC[C@H](C)[C@H](NC)[C@@H](CC(=O)O)OC; X2 = C[C@@H](N*)[C@@H](O)c1ccccc1; NMeV = CN[C@H](C(=O)O)C(C)C
Result type: TGI

Lab note: measured TGI of O=C(CC(=O)n1nc(-c2ccccc2)c(N=Nc2ccccc2Cl)c1-c1ccccc1)Nc1ccc(Cl)cc1 was > 100 µM

Lab note: measured TGI of ClCc1ccccc1Cn1cnc2c(Cl)nc(Cl)nc21 was 0.811 µM

Lab note: measured TGI of Cc1ccc(S(=O)(=O)c2ccccc2)cc1 was > 100 µM

Lab note: measured TGI of COc1cc(/C=C/C(=O)c2ccc(Nc3nc(NCCO)nc(N4CCOCC4)n3)cc2)cc(OC)c1OC was > 100 µM

Lab note: measured TGI of CSc1nc(-c2cc3ccccc3o2)cc(-c2ccc(Cl)cc2)c1C#N was > 100 µM

Lab note: measured TGI of CC[C@H](C)[C@@H]([C@@H](CC(=O)N1CCC[C@H]1[C@H](OC)[C@@H](C)C(=O)N[C@H](C)[C@@H](O)c1ccccc1)OC)N(C)C(=O)[C@@H](NC(=O)[C@@H](NC)C(C)C)C(C)C (H-[NMeV]V[Dil][Dolaproine]-X2) was > 100 µM

Lab note: measured TGI of Cc1ccc(-n2c(O)c(C=N)c(=O)n(-c3ccc(C)cc3)c2=O)cc1 was > 100 µM

Lab note: measured TGI of CCCC[C@H](NC(=O)[C@H]1CCCCN1C)C(=O)N(C)[C@H](C[C@@H](OC(C)=O)c1nc(C(=O)N[C@@H](Cc2ccccc2)C[C@H](C)C(=O)OCC)cs1)C(C)C was > 33.3 µM

Lab note: measured TGI of COc1ccc(/C=C2\N=C(N/N=C\C(O)C(O)C(O)C(O)CO)NC2=O)cc1 (stereo unspecified) was > 100 µM

Lab note: measured TGI of CC(=O)OC1CN2CCC1CC2 (stereo unspecified) was > 100 µM

Lab note: measured TGI of CNC(=O)c1ccccc1Nc1cc(Nc2ccc(N3CCOCC3)cc2OC)ncc1C(F)(F)F was 64.8 µM

Lab note: measured TGI of CCc1n[nH]c(=O)n1/N=C/c1ccc(/C=N/n2c(CC)n[nH]c2=O)cc1 was > 100 µM

Lab note: measured TGI of CN(CCCNCc1ccccn1)Cc1ccccc1O was > 100 µM

Lab note: measured TGI of COc1ccc2c(c1)/C(=N/OC(C)=O)c1c-2c(Nc2cccc(/C(C)=N/OC(C)=O)c2)nc2ccccc12 was 53.1 µM

Lab note: measured TGI of COC(c1ccccc1)C(c1ccccc1)N1CCOCC1 (stereo unspecified) was > 100 µM

Lab note: measured TGI of c1ccc2c(c1)nnn2CN1CCOCC1 was > 100 µM

Lab note: measured TGI of COC1=CC(=O)N(C(=O)C2CSC(C(CO)NC(=O)c3csc(/C=N/O)n3)=N2)C1 (stereo unspecified) was > 100 µM

Lab note: measured TGI of Cc1nnc2n1-c1ccccc1-c1[nH]c3ccccc3c1C2 was > 100 µM

Lab note: measured TGI of CC(=O)NNc1nc(C)c(C(=O)/C=C/C=C/c2ccccc2)s1 was > 100 µM

Lab note: measured TGI of CC[N+](CC)=c1cc2oc3cc(N(C)C)ccc3nc-2cc1C was 17.3 µM

Lab note: measured TGI of CC(C)(C)/C(O)=C\c1nc2ccc(C(F)(F)F)cc2[nH]c1=O was > 100 µM

---

Test system: A498 renal
Assay: NCI tumour cell line growth inhibition, 48 h
Result type: TGI (µM)
Field: numeric (µM). Do not append units.

Lab note: measured TGI of NS(=O)(=O)c1ccc(NC(=S)/N=C/c2c(O)c3ccccc3oc2=O)cc1 was 64.1

Lab note: measured TGI of COc1ccc(/C=C2\N=C(N/N=C\C(O)C(O)C(O)C(O)CO)NC2=O)cc1 (stereo not given) was 93

Lab note: measured TGI of c1cc[n+](C2c3ccccc3C([n+]3ccccc3)c3ccccc32)cc1 (stereo not given) was 73.7

Lab note: measured TGI of O=C1C=CC(=O)C(CNc2ccc(C(=O)OC34CC5CC(CC(C5)C3)C4)cc2)=C1Br was 33.1

Lab note: measured TGI of COc1ccc2[nH]c3c(C)c4ccncc4c(C)c3c2c1 was 2.1

Lab note: measured TGI of COc1cc(Nc2ccnc(NCCNc3ccnc4cc(Cl)ccc34)n2)cc(OC)c1 was 2.2

Lab note: measured TGI of COc1cc(/C=C/C(=O)c2ccc(Nc3nc(NCCO)nc(N4CCOCC4)n3)cc2)cc(OC)c1OC was 5.01

Lab note: measured TGI of C=CCN1C(=O)c2cccc3c(N4CCOCC4)ccc(c23)C1=O was 0.0421

Lab note: measured TGI of CN(C)CCCNc1ccnc2cccc([N+](=O)[O-])c12 was 30.7

Lab note: measured TGI of C[CH2][Sn]([CH2]C)([O]C(=O)c1ccccc1F)[O]C(=O)c1ccccc1F was 35.5

Lab note: measured TGI of CCC(=O)Nc1ccc(NCC(=O)Nc2ccc(Cl)cc2)cc1 was 46

Lab note: measured TGI of Oc1c(Br)cc(Br)c2ccc(Cn3cc(-c4ccc(C(F)(F)F)cc4)nn3)nc12 was 13.8

Lab note: measured TGI of C=CC(=O)N1CCN(CCCn2c(=O)c(-c3c(Cl)c(OC)cc(OC)c3Cl)cc3cnc(NC)nc32)CC1 was 1.81

Lab note: measured TGI of CC(C)(C)OC(=O)C1CCC/C1=N/Nc1ccc([N+](=O)[O-])cc1[N+](=O)[O-] (stereo not given) was 65.4

Lab note: measured TGI of c1ccc2c(c1)c1c(n2CCOCCCN2CCCCC2)CCCC1 was 91.9

Lab note: measured TGI of C=C(Cl)C(Cl)(CBr)CCCC(C)(C)Cl (stereo not given) was 33.9

---

Tested on: HOP-92 NSCLC
Assay: NCI tumour cell line growth inhibition, 48 h
Assign GI50 to each entry below.

Item: S=C(S)NCCNC(=S)S.[Cu+2] | System: HOP-92 NSCLC | GI50: > 100 µM

Item: O=C(c1ccc(Cl)c(Cl)c1)N1CCN(C(=O)c2ccc(Cl)c(Cl)c2)C1=S | System: HOP-92 NSCLC | GI50: 20 µM

Item: CC[C@H](C)[C@H](NC(=O)c1ccccn1)C(=O)N(C)[C@H](C[C@@H](OC(C)=O)c1nc(C(=O)N[C@@H](Cc2ccccc2)C[C@H](C)C(=O)OC)cs1)C(C)C | System: HOP-92 NSCLC | GI50: 6.88 µM

Item: C[CH2][Sn]([CH2]C)([O]C(=O)c1ccccc1F)[O]C(=O)c1ccccc1F | System: HOP-92 NSCLC | GI50: 18 µM

Item: Nc1n[nH]c2cccc(C#Cc3cccc(NC(=O)c4ccc(N5CCOCC5)c(C(F)(F)F)c4)c3)c12 | System: HOP-92 NSCLC | GI50: 0.768 µM

---

System: OVCAR-3 ovarian
Test: NCI tumour cell line growth inhibition, 48 h
Assign TGI to each entry below.

Lab note: measured TGI of CCO/C(O)=C(/C(=N)N1CCOCC1)C(=O)Nc1ccc(Cl)cc1 was > 100 µM

Lab note: measured TGI of COC(c1ccccc1)C(c1ccccc1)N1CCOCC1 (stereo unspecified) was > 100 µM

Lab note: measured TGI of Cc1cc2c(c(S(=O)(=O)c3ccc(Cl)cc3[N+](=O)[O-])c1)NCCC2 was > 100 µM

Lab note: measured TGI of COc1ccc(C(=O)N2c3ccccc3N(C)n3cccc3C2CC(=O)O)cc1 (stereo unspecified) was > 100 µM

Lab note: measured TGI of O=C(/C=C/c1ccc2ccccc2c1)NCc1ccc(C(=O)NCc2ccccc2)cc1 was > 100 µM

Lab note: measured TGI of CCCCC(CCCCCC(CCCC)C1NC(C)Cc2cc(OC)c(OC)cc21)C1NC(C)Cc2cc(OC)c(OC)cc21 (stereo unspecified) was 3.27 µM

Lab note: measured TGI of CC(C)(C)/C(O)=C\c1nc2ccc(C(F)(F)F)cc2[nH]c1=O was > 100 µM

Lab note: measured TGI of CCNCCCNc1c2ccccc2nc2ccccc12 was 2 µM

Lab note: measured TGI of O=C(C[n+]1cccc2cc(Cl)ccc21)c1ccc2c(c1)CCCC2 was 2.26 µM

Lab note: measured TGI of CCCCCC(=O)Nc1n[nH]nc1C#N was > 100 µM

Lab note: measured TGI of NC(N)=NS(=O)(=O)c1ccc(NC(=O)c2cccc3c(=O)c4ccccc4[nH]c23)cc1 was > 100 µM
